Cited source for all entries: patent US20210130436A1

- assayedSystem: T1, human PD-L1 on CHO cells (human, UniProt Q9NZQ7 19-290)
- T1 construct: whole, on cells; CHO cells stably expressing PD-L1; also called huPD-L1
- T1 sequence (Q9NZQ7 19-290): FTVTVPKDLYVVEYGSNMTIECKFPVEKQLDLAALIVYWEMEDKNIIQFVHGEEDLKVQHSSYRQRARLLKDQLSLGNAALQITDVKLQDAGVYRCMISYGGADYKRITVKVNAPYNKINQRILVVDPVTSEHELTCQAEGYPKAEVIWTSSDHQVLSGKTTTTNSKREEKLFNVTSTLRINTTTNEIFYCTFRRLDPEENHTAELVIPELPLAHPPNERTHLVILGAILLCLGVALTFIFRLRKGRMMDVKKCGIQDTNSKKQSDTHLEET
- assayText: flow cytometry; PD-L1 MFI over CD28 MFI
attributeMeasured: Ratio of PDL1:CD28 (ratio)

Here are 3 binders together with their reported answers.
binder="variant CD80 IgV-Fc H18Y/E35D (Fc fusion, not shown: a dimerising Fc or GST) VIHVTKEVKEVATLSCGYNVSVEELAQTRIYWQKDKKMVLTMMSGDMNIWPEYKNRTIFDITNNLSIVILALRPSDEGTYECVVLKYEKDAFKREHLAEVTLSVKAD" numericreadout=7
binder="variant CD80 IgV-Fc Q27L/E35D/M47V/I61V/L85M (Fc fusion, not shown: a dimerising Fc or GST) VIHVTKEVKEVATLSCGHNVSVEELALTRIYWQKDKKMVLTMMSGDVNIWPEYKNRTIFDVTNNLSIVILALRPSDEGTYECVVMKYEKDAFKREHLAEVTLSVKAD" numericreadout=12
binder="variant CD80 IgV-Fc E35D/D46E/L85M (Fc fusion, not shown: a dimerising Fc or GST) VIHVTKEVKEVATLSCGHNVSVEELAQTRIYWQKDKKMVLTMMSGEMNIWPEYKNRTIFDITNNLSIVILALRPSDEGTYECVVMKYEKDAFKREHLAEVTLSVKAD" numericreadout=18

(P) variant CD80 IgV-Fc M47I/A71G (Fc fusion, not shown: a dimerising Fc or GST) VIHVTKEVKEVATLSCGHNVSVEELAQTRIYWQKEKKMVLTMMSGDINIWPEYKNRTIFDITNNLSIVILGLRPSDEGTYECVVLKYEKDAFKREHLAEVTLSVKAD
(Q) variant CD80 IgV-Fc E35D/M47L/A71G/L85M (Fc fusion, not shown: a dimerising Fc or GST) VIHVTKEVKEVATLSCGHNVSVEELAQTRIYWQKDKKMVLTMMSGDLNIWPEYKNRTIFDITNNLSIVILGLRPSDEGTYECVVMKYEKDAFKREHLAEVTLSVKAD
Q: Endpoint returns whichever of P and Q has the numerically higher Ratio of PDL1:CD28. # answer = label of selected item
A: Q
(Q: 42 ratio, P: 6 ratio)
